target_system: Beta-1 adrenergic receptor (Homo sapiens, UniProt P08588)
Sequence (P08588 whole entry): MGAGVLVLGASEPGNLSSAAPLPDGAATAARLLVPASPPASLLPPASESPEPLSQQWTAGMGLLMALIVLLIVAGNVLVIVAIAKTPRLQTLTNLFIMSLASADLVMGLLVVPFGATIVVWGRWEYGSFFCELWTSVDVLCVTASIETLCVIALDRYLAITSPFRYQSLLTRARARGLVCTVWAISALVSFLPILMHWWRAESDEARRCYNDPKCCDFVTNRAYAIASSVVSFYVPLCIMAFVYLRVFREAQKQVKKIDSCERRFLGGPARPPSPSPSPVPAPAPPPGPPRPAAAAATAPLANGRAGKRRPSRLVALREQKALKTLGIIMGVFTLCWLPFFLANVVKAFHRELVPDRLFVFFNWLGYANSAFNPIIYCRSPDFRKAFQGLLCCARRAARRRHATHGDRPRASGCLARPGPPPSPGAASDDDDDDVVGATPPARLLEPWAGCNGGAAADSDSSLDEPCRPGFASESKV
observation_type: pKi
By convention, pKi is the negative base-10 log of a molar concentration.

So what's the measured pKi for this one? "Cc1cc(N2CCNCC2)nc2ccccc12"
6.66

Reference source for all entries: ChEMBL document CHEMBL2331193
